- Tested on: SN12C renal
- PROCEDURE SUMMARY: NCI tumour cell line growth inhibition, 48 h
For each record, write down the corresponding TGI.

Use the examples below as a reference point.
C#C[C@]1(O)CCC2C3CCc4cc(Oc5nc(F)nc(-c6c7cc8ccccc8cc7c7n6CCS7)n5)ccc4C3CCC21C (some centres not stated) | > 100 µM
NC(=N\N=C/c1cccc([N+](=O)[O-])c1)/C(N)=N\N=C/c1cccc([N+](=O)[O-])c1 | > 100 µM

Hi there! I need TGI for each item below, if you can.
1. CN(C)C(=O)Nc1cc2c3c(c1)CCCN3CCC2
2. Cc1ccc(NC(=O)CC(=O)n2nc(-c3ccccc3)c(N=Nc3ccccc3Cl)c2-c2ccccc2)cc1
3. Nc1nc(=S)[nH]c(C(=O)Nc2ccc(Cl)c(Cl)c2)c1-c1ccc(Cl)cc1
4. CCOC(=O)[C@@H]1ON2O[C@H](OC3CCCC3(c3ccccc3)c3ccccc3)C[C@H]3OC(=O)[C@@H]1C32 (some centres not stated)
5. Cc1cc(I)cc(CN(C)CCN2CCCC2)c1O
6. O=P([O-])(O)OP(=O)([O-])O.[NH-][C@@H]1CCCC[C@H]1[NH-].[Pt+4]
7. CN1CCCCCC(=N\O)/C(=N/O)CCCCC1

Reply:
["> 10 µM", "> 100 µM", "> 100 µM", "> 100 µM", "> 100 µM", "> 100 µM", "> 100 µM"]

Hi there! I need TGI for each item below, if you can.
1. Cc1cc2cc3c(C)cc(=O)oc3c(C)c2o1
2. NNc1nc2ccccc2s1
3. NC1CCCCC1N.O=S(=O)([O-])CCCN1CCOCC1.O=S(=O)([O-])CCCN1CCOCC1.[Pt+4]

Reply:
1. > 100 µM
2. > 100 µM
3. > 100 µM

====

- Tested on: OVCAR-5 ovarian
- PROCEDURE SUMMARY: NCI tumour cell line growth inhibition, 48 h
MEASURED PARAMETER: GI50

c1cc(OCCN2CCCCC2)ccc1CNc1ccc2nc(CCC3CCCCC3)[nH]c2c1 | 2.04 µM
CC1(C)CC(n2cnc(-c3ccc(F)cc3)c2-c2ccnc(N)n2)CC(C)(C)N1 | 24.4 µM

As a next step, examine the compound that follows.
Task item: Using the record for O=S(=O)(c1ccc(N=C2NN=C(c3c[nH]c4ccccc34)CS2)cc1)N1CCOCC1 , state its measured GI50.
Reply: 49.1 µM

====

For each record, write down the corresponding TGI.
- System: A549 NSCLC
- PROCEDURE SUMMARY: NCI tumour cell line growth inhibition, 48 h

Use the examples below as a reference point.
Cn1nc(-c2ccccc2)nc1[N+](=O)[O-] | > 10 µM
CC(=O)NC1C(O)C(O)C(CO)OC1n1ncc(=O)[nH]c1=O (centres undefined) | > 100 µM
O=[N+]([O-])c1ccc(Nc2nc3ccccc3s2)cc1 | > 100 µM

Task item: Quote A549 NSCLC TGI for entry CC1=NN(C(=O)c2ccccc2O)C(=O)/C1=C/c1ccccc1O .
Reply: > 100 µM

====

- Test system: MOLT-4 leukemia
- PROCEDURE SUMMARY: NCI tumour cell line growth inhibition, 48 h
MEASURED PARAMETER: TGI

Use the examples below as a reference point.
CC1=NN(C(=O)c2ccccc2O)C(=O)/C1=C/c1ccccc1O | 51 µM
O=[N+]([O-])c1ccc(Nc2nc3ccccc3s2)cc1 | 30.3 µM

Hi there! I need TGI for each item below, if you can.
1. CC(=O)/C(=C\C1=CCCO1)C(=O)Nc1ccccc1C
2. CC1=NN(c2nc(N)nc(CSCc3nc(N)nc(N(C)C)n3)n2)C(C)(C)C1

Reply:
> 100 µM
> 100 µM

Hi there! I need TGI for each item below, if you can.
1. O=c1oc2ccccc2c(O)c1C(c1ccc(/C=C/c2ccccc2)cc1)c1c(O)c2ccccc2oc1=O
2. NC(CCP(=O)(O)CCC1C=CC=CC1)C(=O)O (configuration not stated)
3. CC[O-].CC[O-].O=C1C(c2ccccc2)=C([O-])c2ccccc21.O=C1C(c2ccccc2)=C([O-])c2ccccc21.[Ti+4]
4. CC(=O)NC1C(O)C(O)C(CO)OC1n1ncc(=O)[nH]c1=O (configuration not stated)
5. O=C([O][Hg][CH2]C1COCC([CH2][Hg][O]C(=O)c2ccccc2)O1)c1ccccc1 (configuration not stated)
6. COC(=O)C12CC(c3ccccc31)C1C(=O)OC(=O)C12 (configuration not stated)
7. Cn1c(NS(=O)(=O)c2ccccc2)nc2ccccc21

Reply:
["66.8 µM", "> 100 µM", "> 100 µM", "> 100 µM", "12.5 µM", "> 100 µM", "> 100 µM"]

Task item: Using the record for Nc1nc(=S)[nH]c(C(=O)Nc2ccc(Cl)c(Cl)c2)c1-c1ccc(Cl)cc1 , state its measured TGI.
Reply: > 100 µM
